- TEST: Solubility test of BD in SBECD and Tween 80 solutions
- Type: physicochemical
- CONDITION_LABEL: Tween 80 solution in water, aqueous with cosolvent or surfactant or cyclodextrin, thermodynamic from solid; Tween 80 concentration 20 mg/100 ml
VALUE_TYPE: solubility at 24 h (µg/mL)

CCCC1O[C@@H]2C[C@H]3[C@@H]4CCC5=CC(=O)C=C[C@]5(C)[C@H]4[C@@H](O)C[C@]3(C)[C@]2(C(=O)CO)O1 (stereo partly shown) = 2.92
